Answer each item with its documented Soil treatment herbicidal activity, Crabgrass.
Test system: crabgrass
Assay procedure: Herbicidal activity test against upland field weeds (soil treatment test)
Type: in vivo
Set-up: key: 0 (no control); 100 (complete control)
Test conditions: 50 g ai/ha, scale 0 (no control) to 100 (complete control)
Could you respond with only the numeric value?

Problem: Value wanted: Soil treatment herbicidal activity, Crabgrass (crabgrass) of entry Cn1nnc(COCc2nc(C(F)(F)Cl)ccc2C(=O)Nc2nnnn2C)n1 [Compound No. 2-78]
Solution: 100

Problem: Repeat for the following compound: CSc1nc(COCc2nc(C(F)(F)F)ccc2C(=O)Nc2nnnn2C)nn1C [Compound No. 2-131]
Solution: 0

Problem: Repeat for the following compound: Cn1nnc(CN(OCc2ccccc2)c2nc(C(F)(F)F)ccc2C(=O)Nc2nnnn2C)n1 [Compound No. 2-29]
Solution: 0

Problem: Repeat for the following compound: CON(Cc1nnn(C)n1)c1nc(C(F)(F)F)ccc1C(=O)Nc1nnnn1C [Compound No. 2-30]
Solution: 100

Problem: Repeat for the following compound: Cn1nnc(COCc2nc(C(F)(F)F)ccc2C(=S)Nc2nnnn2C)n1 [Compound No. 2-106]
Solution: 100

Problem: Repeat for the following compound: Cn1nnc(CSCc2nc(C(F)(F)F)ccc2C(=S)Nc2nnnn2C)n1 [Compound No. 2-107]
Solution: 0

Problem: Repeat for the following compound: Cn1nnc(COCc2nc(C(F)(F)F)ccc2C(=O)N(C(=O)c2ccccc2)c2nnnn2C)n1 [Compound No. 2-68]
Solution: 100

----------
Test system: corn
Assay procedure: Phytotoxicity test for upland field crops (foliar treatment test)
Assay type: in vivo
Set-up: key: 0 (no harm); 9 (complete withered)
Test conditions: 50 g ai/ha, Corn (14 days after treatment)
Readout: Foliar treatment phytotoxicity, Corn
Could you respond with only the numeric value?

Problem: // returns reported Foliar treatment phytotoxicity, Corn for input Cn1nnnc1COCc1nc(C(F)(F)F)ccc1C(=O)Nc1nnnn1C
Solution: 0

Problem: Repeat for the following molecule: Cn1nnc(COCc2nc(C(F)F)ccc2C(=O)Nc2nnnn2C)n1
Solution: 1

Problem: Repeat for the following molecule: Cc1nc(COCc2nc(C(F)(F)F)ccc2C(=O)Nc2nnnn2C)nn1C
Solution: 0

Problem: Repeat for the following molecule: Cn1nnc(CSCc2nc(C(F)(F)F)ccc2C(=O)Nc2nnnn2C)n1
Solution: 0

----------
System: corn
Assay procedure: Phytotoxicity test for field crops (soil treatment test)
Format: in vivo
Parameters: key: 0 (no harm); 9 (complete withered)
Test conditions: 100 g ai/ha; Corn (10 days after treatment)
Description: Experimental Example 4: Phytotoxicity Test for Field Crops (Soil Treatment Test) Soil treatment was performed for sown crops and weeds in a square plastic pot having a surface area of 50 cm^2 filled with sterilized horticultural soil (pH 6.1, organic material 1.0%, clay 21%, silt 17%, sand 52%). As a fertilizer per pot, 0.5 g of horticultural mixed fertilizer (N:P:K=17:21:17) was treated by mixing with soil. Five kinds of crops such as rice, wheat, corn, soybean, and cotton were sown in each pot. […]
Readout: Soil treatment phytotoxicity, Corn

Problem: Value wanted: Soil treatment phytotoxicity, Corn (corn) of entry Cn1ncnc1COCc1nc(C(F)(F)F)ccc1C(=O)Nc1nnnn1C
Solution: 0

Problem: Repeat for the following molecule: Cn1cnc(COCc2nc(C(F)F)ccc2C(=O)Nc2nnnn2C)n1
Solution: 0

Problem: Repeat for the following molecule: CON(Cc1nnn(C)n1)Cc1nc(C(F)(F)F)ccc1C(=O)Nc1nnnn1C
Solution: 1

Problem: Repeat for the following molecule: CCOC(=O)OC(C)n1nnn(C)c1=NC(=O)c1ccc(C(F)(F)F)nc1CSCc1nnn(C)n1 (stereo not drawn)
Solution: 0

Problem: Repeat for the following molecule: Cn1nnnc1NC(=O)c1ccc(C(F)(F)F)nc1Sc1nnnn1C
Solution: 0

Problem: Repeat for the following molecule: Cn1nnc(COCc2nc(C(F)(F)C(F)(F)F)ccc2C(=O)Nc2nnnn2C)n1
Solution: 1

Problem: Repeat for the following molecule: Cn1ncnc1COc1nc(C(F)(F)F)ccc1C(=O)Nc1nnnn1C
Solution: 1

Problem: Repeat for the following molecule: Cn1nnc(COCc2nc(C(F)(F)Cl)ccc2C(=O)Nc2nnnn2C)n1
Solution: 1

Problem: Repeat for the following molecule: Cn1nc(COCc2nc(C(F)(F)F)ccc2C(=O)Nc2nnnn2C)nc1Cl
Solution: 0

Problem: Repeat for the following molecule: Cn1nnnc1COc1nc(C(F)(F)F)ccc1C(=O)Nc1nnnn1C
Solution: 0

Problem: Repeat for the following molecule: Cn1nnc(CSCc2nc(C(F)F)ccc2C(=O)Nc2nnnn2C)n1
Solution: 0

Problem: Repeat for the following molecule: Cn1nnc(COCc2nc(C(F)F)ccc2C(=O)Nc2nnnn2C)n1
Solution: 1

----------
Answer each item with its documented Soil treatment phytotoxicity, Soybean.
Test system: soybean
Assay procedure: Phytotoxicity test for field crops (soil treatment test)
Type: in vivo
Design: key: 0 (no harm); 9 (complete withered)
Test conditions: 50 g ai/ha; Soybean (20 days after treatment)
Could you respond with only the numeric value?

Problem: // returns reported Soil treatment phytotoxicity, Soybean for input Cn1nnc(COCc2nc(C(F)F)ccc2C(=O)Nc2nnnn2C)n1
Solution: 0

Problem: Repeat for the following molecule: Cn1nnnc1NC(=O)c1ccc(C(F)(F)F)nc1Sc1nnnn1C
Solution: 0

Problem: Repeat for the following molecule: CCOC(=O)OC(C)n1nnn(C)c1=NC(=O)c1ccc(C(F)(F)F)nc1CSCc1nnn(C)n1 (centres unmarked)
Solution: 1

Problem: Repeat for the following molecule: Cn1nnc(CSCc2nc(C(F)(F)F)ccc2C(=O)N(C(=O)c2ccccc2)c2nnnn2C)n1
Solution: 1

Problem: Repeat for the following molecule: Cn1cnc(COCc2nc(C(F)F)ccc2C(=O)Nc2nnnn2C)n1
Solution: 0

Problem: Repeat for the following molecule: COc1nc(COCc2nc(C(F)(F)F)ccc2C(=O)Nc2nnnn2C)nn1C
Solution: 0

Problem: Repeat for the following molecule: Cn1nnnc1COc1nc(C(F)(F)F)ccc1C(=S)Nc1nnnn1C
Solution: 0

Problem: Repeat for the following molecule: Cn1nnc(CSCc2nc(C(F)F)ccc2C(=O)Nc2nnnn2C)n1
Solution: 0

----------
Answer each item with its documented Foliar treatment phytotoxicity, Corn.
Test system: corn
Assay procedure: Phytotoxicity test for upland field crops (foliar treatment test)
Type: in vivo
Design: key: 0 (no harm); 9 (complete withered)
Test conditions: 100 g ai/ha, Corn (14 days after treatment)
Could you respond with only the numeric value?

Problem: // returns reported Foliar treatment phytotoxicity, Corn for input Cn1nnc(CSCc2nc(C(F)(F)F)ccc2C(=O)Nc2nnnn2C)n1
Solution: 0

Problem: Repeat for the following compound: C=C(C)c1nc(COCc2nc(C(F)(F)F)ccc2C(=O)Nc2nnnn2C)nn1C
Solution: 0

Problem: Repeat for the following compound: Cn1nnnc1NC(=O)c1ccc(C(F)(F)F)nc1COCc1nc(S(C)(=O)=O)n(C)n1
Solution: 0

Problem: Repeat for the following compound: Cn1nc(COCc2nc(C(F)(F)F)ccc2C(=O)Nc2nnnn2C)nc1Br
Solution: 3

----------
System: rice
Assay procedure: Phytotoxicity test for field crops (soil treatment test)
Assay type: in vivo
Test conditions: 100 g ai/ha; Rice (10 days after treatment)
Sorting guide: entries reporting Soil treatment phytotoxicity, Rice beneath 6 go in the t pile, the rest go in the f pile.

Problem: Say whether its Soil treatment phytotoxicity, Rice is strictly beneath 6. Entry: Cn1nnnc1COCc1nc(C(F)(F)F)ccc1C(=O)Nc1nnnn1C [Compound No. 1-61]
Solution: t

Problem: Repeat for the following molecule: Cn1nnc(COCc2nc(C(F)(F)Cl)ccc2C(=O)Nc2nnnn2C)n1 [Compound No. 2-78]
Solution: f

Problem: Repeat for the following molecule: Cn1nnnc1NC(=O)c1ccc(C(F)(F)F)nc1OCc1nnnn1C(F)F [Compound No. 1-26]
Solution: t

Problem: Repeat for the following molecule: Cn1nnc(COc2nc(C(F)(F)F)ccc2C(=O)Nc2nnnn2C)n1 [Compound No. 2-1]
Solution: t

Problem: Repeat for the following molecule: Cn1ncnc1COc1nc(C(F)(F)F)ccc1C(=O)Nc1nnnn1C [Compound No. 1-45]
Solution: f

Problem: Repeat for the following molecule: CCOC(=O)OC(C)n1nnn(C)c1=NC(=O)c1ccc(C(F)(F)F)nc1CSCc1nnn(C)n1 (centres unmarked) [Compound No. 4-10]
Solution: t

Problem: Repeat for the following molecule: Cn1nnnc1COc1nc(C(F)(F)F)ccc1C(=O)Nc1nnnn1C [Compound No. 1-1]
Solution: t

Problem: Repeat for the following molecule: Cn1nnc(COCc2nc(C(F)(F)F)ccc2C(=S)Nc2nnnn2C)n1 [Compound No. 2-106]
Solution: f

Problem: Repeat for the following molecule: Cn1nnc(CSCc2nc(C(F)(F)F)ccc2C(=O)N(c2nnnn2C)S(C)(=O)=O)n1 [Compound No. 2-110]
Solution: t

Problem: Repeat for the following molecule: Cn1nnc(CSCc2nc(C(F)(F)F)ccc2C(=O)N(C(=O)c2ccccc2)c2nnnn2C)n1 [Compound No. 2-109]
Solution: t

Problem: Repeat for the following molecule: Cn1nnc(COCc2nc(C(F)(F)F)ccc2C(=O)Nc2nnnn2C)n1 [Compound No. 2-59]
Solution: f

Problem: Repeat for the following molecule: Cn1cnc(COCc2nc(C(F)F)ccc2C(=O)Nc2nnnn2C)n1 [Compound No. 2-85]
Solution: t

Problem: Repeat for the following molecule: Cc1nc(COCc2nc(C(F)(F)F)ccc2C(=S)Nc2nnnn2C)nn1C [Compound No. 2-117]
Solution: t

Problem: Repeat for the following molecule: Cn1nnnc1NC(=O)c1ccc(C(F)(F)F)nc1Sc1nnnn1C [Compound No. 1-40]
Solution: t

Problem: Repeat for the following molecule: Cn1nc(COCc2nc(C(F)(F)F)ccc2C(=O)Nc2nnnn2C)nc1Cl [Compound No. 2-135]
Solution: f
